TESTED_TARGET: Fc-fusion protein of human PSMA (hPSMA-Fc) (Homo sapiens)
Construct: purchased Acro Biosystems PSA-H5264
Sequence (Q04609 44-750 limits assumed): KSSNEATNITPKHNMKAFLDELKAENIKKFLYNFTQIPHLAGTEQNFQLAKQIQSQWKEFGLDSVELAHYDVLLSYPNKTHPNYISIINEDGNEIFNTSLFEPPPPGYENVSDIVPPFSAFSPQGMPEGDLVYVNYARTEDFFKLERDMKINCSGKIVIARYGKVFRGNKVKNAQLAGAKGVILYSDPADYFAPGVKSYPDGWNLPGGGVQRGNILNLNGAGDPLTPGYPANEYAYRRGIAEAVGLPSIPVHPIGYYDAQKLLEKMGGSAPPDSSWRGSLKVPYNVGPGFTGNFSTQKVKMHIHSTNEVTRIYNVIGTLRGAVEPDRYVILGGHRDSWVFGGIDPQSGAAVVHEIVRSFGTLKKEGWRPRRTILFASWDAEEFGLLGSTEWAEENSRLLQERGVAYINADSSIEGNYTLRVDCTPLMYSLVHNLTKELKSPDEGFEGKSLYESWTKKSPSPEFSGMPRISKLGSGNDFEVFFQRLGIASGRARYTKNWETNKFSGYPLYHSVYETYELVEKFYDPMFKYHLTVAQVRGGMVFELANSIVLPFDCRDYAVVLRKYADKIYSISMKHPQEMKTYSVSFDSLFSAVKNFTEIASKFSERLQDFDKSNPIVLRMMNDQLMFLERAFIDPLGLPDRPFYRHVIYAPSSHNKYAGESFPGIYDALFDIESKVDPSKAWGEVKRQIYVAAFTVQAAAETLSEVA
PROTOCOL_NOTES: Surface plasmon resonance assay (Biacore T200, single cycle kinetic)
Assay type: binding
EXPERIMENTAL_CONDITIONS: pKD category for PSMA SPR activity assay, hPSMA-Fc, 25° C.; read-out: pKD CAT (converted)
Numbered stars: 1 amine (or outer) side, 2 acyl side, 3 side chain; on linkers, the order of the positions; unused ones are H or OH. Bridge positions count the residues as written; N and C are the ends. Square brackets hold non-standard residues; d marks the D form. Peptide text beside a SMILES is read from it. * marks the point of attachment. DOTA = O=C(O)CN1CCN(CC(=O)O)CCN(CC(=O)*)CCN(CC(=O)O)CC1; X4 = O=C(CN1CCC(N[*:1])CC1)[*:2]; Tle = CC(C)(C)[C@H](N)C(=O)O; Nle = CCCC[C@H](N)C(=O)O; Aib = CC(C)(N)C(=O)O
ASSAY_METRIC: Kd

# COMPOUND, Kd
rows = [
    ("CCCC[C@H](NC(=O)[C@@H]1CSSC[C@H](NC(=O)[C@H](Cc2ccccc2)NC(=O)[C@H](C)NC(=O)[C@@H](NC(C)=O)[C@@H](C)O)C(=O)N2CCC[C@H]2C(=O)N[C@@H](CCCNC(=N)N)C(=O)N[C@@H](C)C(=O)N[C@@H](CC(N)=O)C(=O)N1)C(=O)N[C@H](C(=O)N[C@@H](CC(=O)O)C(N)=O)[C@@H](C)O [PSM-0544] (Ac-TAFCPRANC[Nle]TD-NH2; disulfide 4-9)", "> 501 nM"),
    ("C[C@@H](O)[C@H](NC(=O)[C@@H](NC(=O)[C@@H]1CSSC[C@H](NC(=O)[C@H](Cc2ccccc2)NC(=O)C(C)(C)NC(=O)[C@@H](NC(=O)CN2CCC(NC(=O)CN3CCN(CC(=O)O)CCN(CC(=O)O)CCN(CC(=O)O)CC3)CC2)[C@@H](C)O)C(=O)N[C@@H](CCCCN)C(=O)N[C@@H](CCCNC(=N)N)C(=O)NC(C)(C)C(=O)N[C@@H](CC(N)=O)C(=O)N1)C(C)(C)C)C(N)=O [PSM-0543] ({DOTA}-[X4]T[Aib]FCKR[Aib]NC[Tle]T-NH2; disulfide 5-10)", "< 12.6 nM"),
]

Now examine the next entry.
What the record says about CCCC[C@H](NC(=O)[C@@H]1CSSC[C@H](NC(=O)[C@H](Cc2ccccc2)NC(=O)[C@H](C)NC(=O)[C@@H](NC(C)=O)[C@@H](C)O)C(=O)N[C@@H](C)C(=O)N[C@@H](CCCNC(=N)N)C(=O)N[C@@H](C)C(=O)N[C@@H](CC(N)=O)C(=O)N1)C(=O)N[C@H](C(=O)N[C@@H](CC(=O)O)C(N)=O)[C@@H](C)O [PSM-0475] (Ac-TAFCARANC[Nle]TD-NH2; disulfide 4-9) : Kd is > 501 nM
